Tested on: Escherichia coli TOP10
Assay Overview: shrunken log2 fold change of peptide-encoding DNA abundance (4.5 h post-induction vs induction); higher = less antimicrobial activity (less host growth inhibition)
Measurement Parameters: time post-induction: 4.5 h; library: site-saturation at positions 5, 18, 19, 20
Use satisfied when the recorded shrunken log2 fold change is no lower than 0.09; use not satisfied when it is lower.

Solved cases (5 shown):
> print(dat)
            residue.string  assigned.category
1  RRIRWRPPRLPRPRPRPEGVPRP          satisfied
2  RRIRQRPPRLPRPRPRPSGGPRP      not satisfied
3  RRIRDRPPRLPRPRPRPRWAPRP      not satisfied
4  RRIRIRPPRLPRPRPRPQCAPRP      not satisfied
5  RRIRERPPRLPRPRPRPPSEPRP          satisfied

Exercise: Is shrunken log2 fold change for `RRIRKRPPRLPRPRPRPLVAPRP` at or above 0.09?
Key: satisfied

Exercise: # bool: shrunken log2 fold change of `RRIRMRPPRLPRPRPRPYWPPRP` >= 0.09
Key: not satisfied

Exercise: Determine whether measured shrunken log2 fold change meets or exceeds 0.09 for `RRIRVRPPRLPRPRPRPVSSPRP`
Key: satisfied

---

// values below are reported shrunken log2 fold change
Test system: Escherichia coli TOP10
Assay Overview: shrunken log2 fold change of peptide-encoding DNA abundance (4.5 h post-induction vs induction); higher = less antimicrobial activity (less host growth inhibition)
Measurement Parameters: time post-induction: 4.5 h; library: site-saturation at positions 5, 18, 19, 20
The answer should be written as a number, with no unit following it.

Recorded shrunken log2 fold change, per entry:
> print(dat)
            residue.string          assayed.system  endpoint.result
1  RRIRQRPPRLPRPRPRPPAFPRP  Escherichia coli TOP10            0.379
2  RRIRQRPPRLPRPRPRPQTAPRP  Escherichia coli TOP10        -0.000297
3  RRIRLRPPRLPRPRPRPNSHPRP  Escherichia coli TOP10           -0.404
4  RRIRFRPPRLPRPRPRPGPQPRP  Escherichia coli TOP10            0.447
5  RRIRARPPRLPRPRPRPDHYPRP  Escherichia coli TOP10           -0.287

Exercise: Requested field: shrunken log2 fold change. Item: `RRIRVRPPRLPRPRPRPHVAPRP`
Key: -0.0516

Exercise: // query shrunken log2 fold change value for entry `RRIRRRPPRLPRPRPRPYAAPRP`
Key: 0.395

Exercise: What measured shrunken log2 fold change goes with `RRIRYRPPRLPRPRPRPPYLPRP` ?
Key: -0.985

Exercise: Entry `RRIRSRPPRLPRPRPRPHYYPRP` has what shrunken log2 fold change?
Key: -0.581

---

Tested on: Escherichia coli TOP10
Assay Overview: shrunken log2 fold change of peptide-encoding DNA abundance (4.5 h post-induction vs induction); higher = less antimicrobial activity (less host growth inhibition)
Measurement Parameters: time post-induction: 4.5 h; library: site-saturation at positions 5, 18, 19, 20
Experimental Endpoint: shrunken log2 fold change
Kindly provide the number alone.

Answered cases to consult:
> print(dat)
            residue.string  endpoint.result
1  RRIRTRPPRLPRPRPRPLSKPRP            -0.22
2  RRIRPRPPRLPRPRPRPTCIPRP           -0.146
3  RRIRQRPPRLPRPRPRPWLQPRP            0.188
4  RRIRKRPPRLPRPRPRPIGTPRP            0.105
5  RRIRVRPPRLPRPRPRPVLMPRP            0.107
6  RRIRKRPPRLPRPRPRPTWSPRP            0.278

Exercise: Query shrunken log2 fold change on Escherichia coli TOP10 for `RRIRCRPPRLPRPRPRPQKTPRP`
Key: -0.162

Exercise: Look up shrunken log2 fold change with Escherichia coli TOP10 for this sequence: `RRIRIRPPRLPRPRPRPPTYPRP`
Key: -0.427

Exercise: Lab request: please report shrunken log2 fold change under test system Escherichia coli TOP10 for `RRIRPRPPRLPRPRPRPSWRPRP`
Key: -0.0524

---

Test system: Escherichia coli TOP10
Assay Overview: shrunken log2 fold change of peptide-encoding DNA abundance (4.5 h post-induction vs induction); higher = less antimicrobial activity (less host growth inhibition)
Measurement Parameters: time post-induction: 4.5 h; library: site-saturation at positions 5, 18, 19, 20
Class assignment keyed on shrunken log2 fold change, ranges LOW (below -0.2), MID (-0.2 to below 0.07), HIGH (0.07 or more)

> print(dat)
            residue.string  assigned.category
1  RRIRARPPRLPRPRPRPNYKPRP                LOW
2  RRIRTRPPRLPRPRPRPNKIPRP                LOW
3  RRIRVRPPRLPRPRPRPYFFPRP                LOW
4  RRIRYRPPRLPRPRPRPVVQPRP                MID
5  RRIRNRPPRLPRPRPRPWATPRP                MID

Exercise: For the record `RRIRMRPPRLPRPRPRPFKTPRP` , report the class its shrunken log2 fold change corresponds to.
Key: MID

Exercise: Please indicate the class for `RRIRWRPPRLPRPRPRPHHCPRP` based on its shrunken log2 fold change.
Key: LOW

Exercise: Where would `RRIRRRPPRLPRPRPRPNKIPRP` land among the classes by reported shrunken log2 fold change?
Key: HIGH

Exercise: Class for `RRIRRRPPRLPRPRPRPRAVPRP` ?
Key: HIGH

Exercise: Note: place this sequence into its band. Item: `RRIRRRPPRLPRPRPRPEAIPRP`
Key: HIGH

---

Test system: Escherichia coli TOP10
Assay Overview: shrunken log2 fold change of peptide-encoding DNA abundance (4.5 h post-induction vs induction); higher = less antimicrobial activity (less host growth inhibition)
Measurement Parameters: time post-induction: 4.5 h; library: site-saturation at positions 5, 18, 19, 20
Experimental Endpoint: shrunken log2 fold change

> print(dat)
            residue.string  endpoint.result
1  RRIRIRPPRLPRPRPRPQSTPRP           -0.427
2  RRIRYRPPRLPRPRPRPEPPPRP             0.49
3  RRIRARPPRLPRPRPRPMPWPRP            0.483

Exercise: Quick one: shrunken log2 fold change of `RRIRARPPRLPRPRPRPCCAPRP` ?
Key: 0.774

---

Test system: Escherichia coli TOP10
Assay Overview: shrunken log2 fold change of peptide-encoding DNA abundance (4.5 h post-induction vs induction); higher = less antimicrobial activity (less host growth inhibition)
Measurement Parameters: time post-induction: 4.5 h; library: site-saturation at positions 5, 18, 19, 20
Below is a list of entries, each paired with its recorded shrunken log2 fold change value.
I'd appreciate a reply containing only the number, no unit.

> print(dat)
            residue.string  endpoint.result
1  RRIRCRPPRLPRPRPRPPFTPRP            -0.15
2  RRIRHRPPRLPRPRPRPGKMPRP           -0.423
3  RRIRVRPPRLPRPRPRPEIYPRP           -0.348

Exercise: So what shrunken log2 fold change did `RRIRRRPPRLPRPRPRPGCAPRP` get with Escherichia coli TOP10?
Key: 0.73

Exercise: Provide value of shrunken log2 fold change for this record tested with Escherichia coli TOP10: `RRIRIRPPRLPRPRPRPAINPRP`
Key: -0.606

Exercise: Request body: readout shrunken log2 fold change, system Escherichia coli TOP10, query `RRIRLRPPRLPRPRPRPWRYPRP` . Return the value.
Key: -0.268

Exercise: Please provide the recorded shrunken log2 fold change for `RRIRGRPPRLPRPRPRPHEEPRP` , tested on Escherichia coli TOP10.
Key: 0.383

Exercise: Missing value: shrunken log2 fold change, Escherichia coli TOP10, entry `RRIRWRPPRLPRPRPRPWCYPRP` . Fill in?
Key: -0.475

Exercise: Fill in the recorded shrunken log2 fold change for this sequence, with Escherichia coli TOP10 as test system: `RRIRPRPPRLPRPRPRPEVQPRP`
Key: 0.0715

Exercise: Which measured shrunken log2 fold change belongs to `RRIRMRPPRLPRPRPRPWICPRP` , tested on Escherichia coli TOP10?
Key: 0.0396

Exercise: Recall the recorded shrunken log2 fold change for `RRIRERPPRLPRPRPRPKYVPRP` with Escherichia coli TOP10 and state it.
Key: -0.475

Exercise: What value of shrunken log2 fold change on Escherichia coli TOP10 does `RRIRNRPPRLPRPRPRPVENPRP` have?
Key: -0.0754

Exercise: // map `RRIRYRPPRLPRPRPRPSDFPRP` to recorded shrunken log2 fold change (system: Escherichia coli TOP10)
Key: -1.03

Exercise: Recall the recorded shrunken log2 fold change for `RRIRGRPPRLPRPRPRPANFPRP` with Escherichia coli TOP10 and state it.
Key: 0.0804

Exercise: API: value(readout= shrunken log2 fold change, system= Escherichia coli TOP10, query= `RRIRLRPPRLPRPRPRPIVIPRP` )
Key: -1.37

Exercise: Please tell me: shrunken log2 fold change of `RRIRKRPPRLPRPRPRPCSRPRP` , system Escherichia coli TOP10?;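 note: peptides expressed intracellularly from a pBAD plasmid library in pooled LB shake-flask culture, induced with 0.3% L-arabinose, DNA abundance read by NGS, three biological replicates, DESeq2 with apeglm shrinkage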
Key: 0.015
